Quick reference: methylation on microRNA, FTD parental strain of the listed items.
- Test system: DLD-1 cell strain, 5-FU resistant strain, FTD resistant strain
- measurement context: RIP sequencing; DLD-1, FTD parental strain
- Protocol: For an original DLD-1 cell strain and each resistant strain (5-FU resistant strain and FTD resistant strain), RNA methylation analysis in accordance with the protocol for RIP sequencing described above and microarray or mRNA expression analysis similar to the qRT-PCR of Example 2-2 was performed. […] The statistical significance of the results was evaluated by pairwise T-TEST using R version 3.4.3 (2017-11-30) on Microsoft Excel® software (Microsoft Campus, Redmond, WA, USA). […]
quantity name: methylation on microRNA, FTD parental strain

substance	measured target	reported value
miR-378i (ACUGGACUAGGAGUCAGAAGG; chemistry not fully specified; listed as Homo sapiens)	DLD-1 cell strain, 5-FU resistant strain, FTD resistant strain	6
miR-492 (AGGACCUGCGGGACAAGAUUCUU; chemistry not fully specified; listed as Homo sapiens)	DLD-1 cell strain, 5-FU resistant strain, FTD resistant strain	0
miR-378e (ACUGGACUUGGAGUCAGGA; chemistry not fully specified; listed as Homo sapiens)	DLD-1 cell strain, 5-FU resistant strain, FTD resistant strain	3
